- assay text: Initial plasma concentration in C57BL/6J mouse at 10 mg/kg, iv measured upto 24 hrs by LC-MS/MS analysis
- Assay type: ADME, organism-based
test readout: C0 at 24 h (ng/mL)
Answers are plain numbers, in ng/mL.

So, `COc1cc(Nc2nccc(N3CCCn4nc(C#C[C@@](C)(O)c5nccs5)cc43)n2)cc(OC)c1` ? Its C0 at 24 h was 5060

---

- system name: Mitogen-activated protein kinase kinase kinase 14 (Homo sapiens, UniProt Q99558)
- Sequence (Q99558 whole entry): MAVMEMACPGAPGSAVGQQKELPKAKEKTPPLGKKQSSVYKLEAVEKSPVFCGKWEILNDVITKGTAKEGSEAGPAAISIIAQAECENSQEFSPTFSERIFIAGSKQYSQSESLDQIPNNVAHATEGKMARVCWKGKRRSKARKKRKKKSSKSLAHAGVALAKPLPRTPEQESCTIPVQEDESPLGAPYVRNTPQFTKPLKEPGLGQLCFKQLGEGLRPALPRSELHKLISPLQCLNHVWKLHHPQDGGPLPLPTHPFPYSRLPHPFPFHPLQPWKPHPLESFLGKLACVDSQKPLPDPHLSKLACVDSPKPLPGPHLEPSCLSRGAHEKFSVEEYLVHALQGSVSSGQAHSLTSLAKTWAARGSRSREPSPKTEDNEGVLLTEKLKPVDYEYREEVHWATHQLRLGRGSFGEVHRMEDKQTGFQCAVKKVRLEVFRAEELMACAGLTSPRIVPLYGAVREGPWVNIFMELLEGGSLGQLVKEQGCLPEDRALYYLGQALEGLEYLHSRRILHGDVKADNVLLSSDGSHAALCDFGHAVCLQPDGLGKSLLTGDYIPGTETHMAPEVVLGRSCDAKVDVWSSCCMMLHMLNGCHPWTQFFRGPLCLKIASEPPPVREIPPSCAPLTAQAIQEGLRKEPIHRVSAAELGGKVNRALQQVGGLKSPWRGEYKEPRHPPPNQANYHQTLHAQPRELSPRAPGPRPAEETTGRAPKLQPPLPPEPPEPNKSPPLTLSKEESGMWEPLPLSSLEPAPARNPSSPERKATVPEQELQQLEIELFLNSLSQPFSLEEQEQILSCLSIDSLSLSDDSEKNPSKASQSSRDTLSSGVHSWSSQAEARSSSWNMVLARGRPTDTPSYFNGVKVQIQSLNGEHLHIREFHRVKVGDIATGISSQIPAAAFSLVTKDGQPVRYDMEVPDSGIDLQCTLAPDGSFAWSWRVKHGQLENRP
- assay text: Inhibition of NIK (unknown origin) incubated 30 to 60 mins by ADP-Glo Kinase
test readout: pIC50
Numbers only, as −log10 of the molar value.

// known answers, use as guide
CC(O)(C#Cc1cc2n(n1)CCCN2c1ccnc(Nc2ccc(F)cn2)n1)c1nccs1 (stereo not drawn)
8.08
CC(O)(C#Cc1cc2n(n1)CCCN2c1ccnc(Nc2cccc(N3CCCCC3)n2)n1)c1nccs1 (stereo not drawn)
7.61

Count: 7. Required value per item: pIC50.
1. CC(O)(C#Cc1cc2n(n1)CCCN2c1ccnc(Nc2cc(C#N)ccn2)n1)c1nccs1 (stereo not drawn)
2. Cn1ccc(Nc2nccc(N3CCCn4nc(C#CC(C)(O)c5nccs5)cc43)n2)n1 (stereo not drawn)
3. CC(O)(C#Cc1cc2n(n1)CCCN2c1ccnc(Nc2cccc(N3CCOCC3)n2)n1)c1nccs1 (stereo not drawn)
4. CC(O)(C#Cc1cc2n(n1)CCCN2c1ccnc(Nc2ccc(Cl)cc2)n1)c1nccs1 (stereo not drawn)
5. CC(O)(C#Cc1cc2n(n1)CCCN2c1ccnc(NC2CCCCC2)n1)c1nccs1 (stereo not drawn)
6. CC(C)n1cc(Nc2nccc(N3CCCn4nc(C#CC(C)(O)c5nccs5)cc43)n2)cn1 (stereo not drawn)
7. COc1ccnc(Nc2nccc(N3CCCn4nc(C#CC(C)(O)c5nccs5)cc43)n2)c1 (stereo not drawn)

1: 8.16; 2: 8.03; 3: 8.01; 4: 8.19; 5: 6.88; 6: 8.04; 7: 8.29

Count: 5. Required value per item: pIC50.
1. OC1(C#Cc2cc3n(n2)CCCN3c2ccnc(Nc3ccc4c(c3)OCO4)n2)CCn2ccnc21 (stereo not drawn)
2. Cn1cc(Nc2nccc(N3CCCn4nc(C#CC(C)(O)c5nccs5)cc43)n2)cn1 (stereo not drawn)
3. OC1(C#Cc2cc3n(n2)CCCN3c2ccnc(Nc3ccc4c(c3)OCO4)n2)CCCC1
4. COc1cc(Nc2nccc(N3CCCn4nc(C#CC(C)(O)c5nccs5)cc43)n2)nc(OC)c1 (stereo not drawn)
5. CC(O)(C#Cc1cc2n(n1)CCCN2c1ccnc(Nc2ccccn2)n1)c1nccs1 (stereo not drawn)

1. 8.36
2. 8.27
3. 7.85
4. 7.97
5. 8.23

Count: 7. Required value per item: pIC50.
1. CC(O)(C#Cc1cc2n(n1)CCCN2c1ccnc(N)n1)c1nccs1 (stereo not drawn)
2. COc1ccc(Nc2nccc(N3CCCn4nc(C#CC(C)(O)c5nccs5)cc43)n2)nc1 (stereo not drawn)
3. CC(O)(C#Cc1cc2n(n1)CCCN2c1ccnc(Nc2ccc3c(c2)OC(F)(F)O3)n1)c1nccs1 (stereo not drawn)
4. CC(O)(C#Cc1cc2n(n1)CCCN2c1ccnc(Nc2ccncn2)n1)c1nccs1 (stereo not drawn)
5. CC(O)(C#Cc1cc2n(n1)CCCN2c1cc(Nc2ccc(F)cc2)ncn1)c1nccs1 (stereo not drawn)
6. CC(O)(C#Cc1cc2n(n1)CCCN2c1ccnc(Nc2cc(N3CCOCC3)ccn2)n1)c1nccs1 (stereo not drawn)
7. COCCN(C)c1cccc(Nc2nccc(N3CCCn4nc(C#CC(C)(O)c5nccs5)cc43)n2)n1 (stereo not drawn)

[8.34, 8.13, 7.81, 7.95, 7.23, 6.47, 7.83]
